test system: MS2 coat protein; assay: apparent KD of MS2 coat protein; higher = weaker reporter binding; details: Eterna round: R107; input ligand: arginine 13.2 mM
Below: a set of entries, each annotated with reported apparent KD of MS2 coat protein.

# residues, apparent KD of MS2 coat protein
data = [
    ("AGCGAUUUCGGAAGGAGCGGUACAUGAGGAUCACCCAUGUAUUCAAUCGUGAUCGGCGCGUGCCAGGUAGGUCGCCGAAGGCGUC [Veatat]", "12.4 nM"),
    ("AUGCAUAGCGGAAGGAGCGCAAUAGAAUGACAUGAGGAUCACCCAUGUGUGUGAUGUGGAUUGCAGGUAGGUCGCCGAGUGGUAU [Exclusion - Arginine B (Freestyle 3)]", "35.9 nM"),
    ("AUGCAGAACACGGCCGCCACUCAUUGUAGACAUGAGGAUCACCCAUGUAAUAGGGAUAUUUUAUUGAGGACCGGGUGUAAUGCAA [JR_SSTryptoB_Sub013]", "34.5 nM"),
    ("GAGGGUGAGCCUCUGGUCCGUUUGACGGAUACCAGCGAGAGGUCUCGCCCUUGGCAGCCGACGACAUGAGGAUCACCCAUGUUAA [#09 Exclusion-TheophyllineA]", "17.3 nM"),
    ("GGAUGAAACUGAAGGAGCGAGAUCACAAGAAUGGGUCAAACAUGAGGAUCACCCAUGUAAUCUCAGGUAGGUCGCAGUGUCCCUU [Exclusion Arginine B GF 11]", "40.1 nM"),
    ("UUAUUUAACGGAAGGAGCGCGGAAAUUAAAGUGGGUAAACAUGAGGAUCACCCAUGUAAACCGCAGGUAGGUCGCCGAUAUUUAU [#22 Exclusion - Arginine B]", "43 nM"),
    ("AUAAGUAAUGUUACGUGUUUUAUUACAGAUACCAGACUAUACGUUGUCCCUUGGCAGCUGAAUUACAUGAGGAUCACCCAUGUUG [JR_ExcTheophyA_Sub004]", "15.9 nM"),
    ("AACAUGAGGAUCACCCAUGUCCCAUGUGAACGAGGACCGGUACGGCCGCCACUCGACCGAGGCGGCACAUGAGGAUCACCCACAU [whbob_SS_trypto A_2s13]", "137 nM"),
    ("CCUAUGCAGUCGGCCGCCACUGAGUCCUCAAUAAUAAAUUAAUAAACAUGAGGAUCACCCAUGUACAGGACCGGGACUGUAUAGG [Ex Tryptophan B 12]", "165 nM"),
    ("ACCUGUACGAAAAGUGCAGGACACGGAAUACGAGGACCGGUACGGCCGCCACUCGGAAUAAACCUGAGGAUCACCCUGGUCCGUG [TrypAS 9 #AlternativeMS2 #Zipper #StaticStem]", "26.8 nM"),
    ("UACCGAUGAAGAAGGAGCGUACGUGGUUCACAUGAGGAUCACCCAUGUGCUUAUUGCUAGGUACAGGUAGGUCGCUUCAUCGGUA [SSAB NP+V+V2 #21]", "16.5 nM"),
]

###

system: MS2 coat protein; experiment: apparent KD of MS2 coat protein; designed switch direction (-1 OFF switch, 1 ON switch): 1; higher = weaker reporter binding; settings: input ligand: FMN 200 uM

# residues, apparent KD of MS2 coat protein, nM
measured = [
    ("GGUAAGAAUUAAGGAUAUUGAAUACAUAUGUUUAACAUGAGGAUCACCCAUGUGGGUUGCGGUGUCGAGAAGGUAAAUUAAUAG [Mat - same State NG 2 - JL mod - D100] (Eterna round: R96, puzzle: Same State NG 2)", 262),
    ("AGCUAUUAAUCAGGAUAUGGUCACAUGAGGAUCACCCAUGUAACGAUGAUAUAAUGUGGUCAAAACUAGAAGGGAUUGCUAACA [SameState NG2 #65] (Eterna round: R96, puzzle: Same State NG 2)", 341),
]

###

tested on: K4 kissing-loop RNA reporter; test: apparent KD of K4 kissing-loop reporter; higher = weaker reporter binding; conditions: Eterna round: R107; input ligand: arginine 13.2 mM;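 note: bound reporter read as fluorescence of individual clusters on recovered sequencing chips by microscopy, with normalized cluster intensities fitted with a binding model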

# residues, readout_units, apparent KD of K4 kissing-loop reporter
measured = [
    ("GGGUCAGUCUGAAGGAGCGGCCAGACAGAGCAGUGAUGUUGCUCCUAAUUUAAAAGUGUCGGCCAGGUAGGUCGCAGAUUGGCUC [Dienralais]", "nM", 127),
    ("AAUUGAGUGACGGCCGCCACUAGAGUGAUUUUUUUGUUUGAGUGAUGUUUUGAUGUUUGAUGUUGUAGGACCGGGUUGAGUGAUG [vvrvmullin]", "nM", 348),
    ("GGAUAGGACAGAGGAUAUCCUGAGGCAAGAAACUUGUCUCAUAAAGGAUGAAUCCUAGUGAUGUUAGGAGAAGGCUGUCCUAUCG [FmnBX 15 - #SwitchBubble #StaticStem #Palindromic]", "nM", 58.8),
    ("GGGCGCGGCGCGGCCGCCACUGGGCCUGGGCGCGCGCCGAGUGAUGUUCGCCUGCGGCUGGGUCGUAGGACCGGGUGCCGGCUGG [BDazzled 1]", "nM", 202),
    ("UUCAGGUGUUCGGCCGCCACUCCAGUGAUGUUGGAGUGGCUUCACAAGGACCAGGACAAUGUAAGGAGGACCGGGAAUAUCGCAG [Leerat]", "nM", 110),
    ("ACCUAGUACGUAGGAUAUCGAACAUCAUUUAGUGAGAUCGAGUGAUGUUCGAUCACGUCUUCAGUUCGAGAAGGACGUACUAGGA [FMN B SS t4]", "nM", 273),
]

###

system: MS2 coat protein; experiment: apparent KD of MS2 coat protein; designed switch direction (-1 OFF switch, 1 ON switch): 1; higher = weaker reporter binding; conditions: input ligand: microRNA oligo, concentration not stated

# residues, subject_of_test, apparent KD of MS2 coat protein (µM)
measured = [
    ("AGAUCAUGACGAGGAUAUGGUACAUGAGGAUCACCCAUGUAUGUACCACGACGCGUACGUCGAAUCCAGAAGGCGUCAUGGUCA [Mat - Same State NG 2 - JL mod - D17] (Eterna round: R96, puzzle: Same State NG 2)", "MS2 coat protein", 0.0513),
    ("GAGGGACGGACGAACAUGAGGAUCACCCAUGUCCUCGGAGGUCAGGAUAUCCGGAGGUAGCCGAAGGAGAAGGGACGGUGAACC [AK SSNG3-V2-31.1] (Eterna round: R96, puzzle: Same State NG 3)", "MS2 coat protein", 0.0515),
    ("GGUGGGUUGCUGCCGGCACAUGAGGAUCACCCAUGUUUUGGGAAGGAUAUGGUACCUCUUUGGUGCCAGAAGGUCCCGUUGGUG [salish99_SSNG3_r04_713] (Eterna round: R96, puzzle: Same State NG 3)", "MS2 coat protein", 0.503),
    ("GCCGCGUUUCGCGCCUACAUGAGGAUCACCCAUGUUUGUAGGCAGGAUAUCGUUUGCUUUGCAAACGAGAAGGGCUGUUGUGGC [salish99_SSNG3_R04_012] (Eterna round: R96, puzzle: Same State NG 3)", "MS2 coat protein", 0.0472),
    ("AGCCGAAGCGCAGGAUAUACAUGUAUACAUGAGGAUCACCCAUGUAGCAACACGUGGUAGUGAUUGUAGAAGGGUGCUCGGCGC [Omei SS(NG)2 Cv15] (Eterna round: R96, puzzle: Same State NG 2)", "MS2 coat protein", 0.0186),
    ("GCCAUCGUAUGAGGAUAUGGCACCGAAACGGUGCCAGAAGGCAUGUCAAUUGACAUGAGGAUCACCCAUGUAUUAUCGAUGGCA [Mat - Same State NG 1 - JL mod - D89] (Eterna round: R96, puzzle: Same State NG 1)", "MS2 coat protein", 0.454),
    ("AUAUUUAAUGCAGGAUAUGAUUAACAUGAGGAUCACCCAUGUGGUGUUGUGAGUAAGGAGAGUGAUCAGAAGGGCAUUUUUUUU [JMF's solution 100] (Eterna round: R96, puzzle: Same State NG 2)", "MS2 coat protein", 0.322),
    ("GCUCGACGUAUGGCCUACAUGAGGAUCACCCAUGUGACUGGGCAGGAUAUCUAAAUGCAGAAUGUAGAGAAGGGCCCGUCGAGC [SameState NG3 #49] (Eterna round: R96, puzzle: Same State NG 3)", "MS2 coat protein", 0.0996),
    ("AUUAUUGAUGCAGGAUAUGAUUAACAUGAGGAUCACCCAUGUGGUGUUGUGAGUAAGGAGAGUGAUCAGAAGGGCAUUUUUUUU [JMF's solution 23] (Eterna round: R96, puzzle: Same State NG 2)", "MS2 coat protein", 0.435),
    ("GUACAUAUCGUAGGAUAUCACGUCGAAUAGACGUGAGAAGGACGGUCCCACAUGAAUAUUAAUACAUGAGGAUCACCCAUGUAC [MOD SSNG 1/18-A1 by Brourd] (Eterna round: R96, puzzle: Same State NG 1)", "MS2 coat protein", 0.0418),
    ("UUUAUUUAUGCAGGAUAUGAUUAACAUGAGGAUCACCCAUGUGGUGUUGUGAGUAAGGAGAGUGAUCAGAAGGGCAUUUUUUUU [JMF's solution 76] (Eterna round: R96, puzzle: Same State NG 2)", "MS2 coat protein", 0.396),
    ("GUAGCAUACCGAGGAUAUUCAUAUUAACAUGAGGAUCACCCAUGUUUUUAGGCCAAAAGGCCUUGGGAGAAGGCGGAAUGCUAC [Xeonanis - 20 Mod6] (Eterna round: R96, puzzle: Same State NG 2)", "MS2 coat protein", 0.0128),
    ("CAUCGUUUGAUAGGAUAUCGCUAUACAUGAGGAUCACCCAUGUUUACCACGCUGGUUUUUCAUACCGAGAAGGAUUCUGAUGUU [salish99_SSNG02_r04_015] (Eterna round: R96, puzzle: Same State NG 2)", "MS2 coat protein", 0.0252),
    ("AGCUAUUACGAAGGAUAUUCUGACAUGAGGAUCACCCAUGUCUUCAUGAUUUAUUGUGAUCACGUGAAGAAGGUUGUACUAACA [SameState NG2 #26] (Eterna round: R96, puzzle: Same State NG 2)", "MS2 coat protein", 0.0722),
    ("GUUACAUGAGGAUCACCCAUGUAUGUGUGGGAGUAAGUGUCUUAGGAUAUCUAUUAUUUAAUUUGAGAGAAGGAAGAUUGUUGU [JMF's solution 28] (Eterna round: R96, puzzle: Same State NG 3)", "MS2 coat protein", 0.0977),
    ("CCGAUUGAUGGAGGAUAUGGAGCCUUAUUGGCUCCAGAAGGCUAAUAACAUGAGGAUCACCCAUGUCGGCGGUCUAAUGACCGA [Eli NG1ss - 54] (Eterna round: R96, puzzle: Same State NG 1)", "MS2 coat protein", 0.0575),
    ("UGUUGUAUUACAGGAUAUCUAUUGUUUUUAUGUAGAGAAGGGUAUUCACAUGAGGAUCACCCAUGUAUAUACGAGGAAGUUGUG [JMF's solution 85] (Eterna round: R96, puzzle: Same State NG 1)", "MS2 coat protein", 0.0366),
]
